experimentalSystem: CDK12 (Homo sapiens, UniProt Q9NYV4)
Construct: endogenous in cells; host or cells: CAL-120 human breast cancer cells (DSMZ ACC 459)
Sequence (Q9NYV4 whole entry): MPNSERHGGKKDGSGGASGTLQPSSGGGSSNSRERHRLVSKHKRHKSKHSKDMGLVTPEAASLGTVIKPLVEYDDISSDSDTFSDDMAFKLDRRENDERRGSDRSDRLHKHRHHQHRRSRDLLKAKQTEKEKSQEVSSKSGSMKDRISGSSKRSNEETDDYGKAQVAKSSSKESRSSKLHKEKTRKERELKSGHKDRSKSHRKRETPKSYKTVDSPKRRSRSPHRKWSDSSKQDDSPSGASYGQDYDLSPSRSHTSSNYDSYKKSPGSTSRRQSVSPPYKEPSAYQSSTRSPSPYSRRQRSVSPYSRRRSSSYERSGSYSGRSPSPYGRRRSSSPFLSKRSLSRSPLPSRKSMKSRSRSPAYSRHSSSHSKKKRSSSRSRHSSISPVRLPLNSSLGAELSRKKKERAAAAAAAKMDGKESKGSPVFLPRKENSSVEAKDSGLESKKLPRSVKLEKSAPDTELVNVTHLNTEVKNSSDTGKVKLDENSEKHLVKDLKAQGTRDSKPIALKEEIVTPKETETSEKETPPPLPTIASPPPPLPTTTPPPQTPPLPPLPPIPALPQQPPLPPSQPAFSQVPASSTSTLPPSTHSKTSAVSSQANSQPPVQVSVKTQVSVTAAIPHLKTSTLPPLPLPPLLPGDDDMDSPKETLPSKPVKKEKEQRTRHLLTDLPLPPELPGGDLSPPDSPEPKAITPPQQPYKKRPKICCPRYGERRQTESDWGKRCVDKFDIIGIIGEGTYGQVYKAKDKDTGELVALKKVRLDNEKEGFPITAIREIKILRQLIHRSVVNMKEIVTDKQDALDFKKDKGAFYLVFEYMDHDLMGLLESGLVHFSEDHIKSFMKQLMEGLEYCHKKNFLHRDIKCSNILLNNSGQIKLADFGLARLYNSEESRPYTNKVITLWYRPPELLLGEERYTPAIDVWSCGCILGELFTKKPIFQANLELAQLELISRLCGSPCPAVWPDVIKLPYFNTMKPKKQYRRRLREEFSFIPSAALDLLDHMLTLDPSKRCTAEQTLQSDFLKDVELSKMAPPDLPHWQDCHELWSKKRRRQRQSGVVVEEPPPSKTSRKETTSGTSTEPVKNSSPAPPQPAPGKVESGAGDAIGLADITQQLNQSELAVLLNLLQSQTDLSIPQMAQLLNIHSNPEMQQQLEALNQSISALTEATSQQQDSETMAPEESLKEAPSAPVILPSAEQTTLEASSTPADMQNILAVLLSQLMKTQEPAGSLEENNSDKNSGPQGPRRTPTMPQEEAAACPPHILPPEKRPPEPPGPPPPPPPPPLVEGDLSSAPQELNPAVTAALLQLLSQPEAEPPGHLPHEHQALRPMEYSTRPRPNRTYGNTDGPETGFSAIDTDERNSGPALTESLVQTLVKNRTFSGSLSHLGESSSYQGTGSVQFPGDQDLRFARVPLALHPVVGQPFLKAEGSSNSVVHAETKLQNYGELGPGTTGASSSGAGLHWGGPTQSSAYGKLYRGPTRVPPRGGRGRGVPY
Sequence (O75909 whole entry partner): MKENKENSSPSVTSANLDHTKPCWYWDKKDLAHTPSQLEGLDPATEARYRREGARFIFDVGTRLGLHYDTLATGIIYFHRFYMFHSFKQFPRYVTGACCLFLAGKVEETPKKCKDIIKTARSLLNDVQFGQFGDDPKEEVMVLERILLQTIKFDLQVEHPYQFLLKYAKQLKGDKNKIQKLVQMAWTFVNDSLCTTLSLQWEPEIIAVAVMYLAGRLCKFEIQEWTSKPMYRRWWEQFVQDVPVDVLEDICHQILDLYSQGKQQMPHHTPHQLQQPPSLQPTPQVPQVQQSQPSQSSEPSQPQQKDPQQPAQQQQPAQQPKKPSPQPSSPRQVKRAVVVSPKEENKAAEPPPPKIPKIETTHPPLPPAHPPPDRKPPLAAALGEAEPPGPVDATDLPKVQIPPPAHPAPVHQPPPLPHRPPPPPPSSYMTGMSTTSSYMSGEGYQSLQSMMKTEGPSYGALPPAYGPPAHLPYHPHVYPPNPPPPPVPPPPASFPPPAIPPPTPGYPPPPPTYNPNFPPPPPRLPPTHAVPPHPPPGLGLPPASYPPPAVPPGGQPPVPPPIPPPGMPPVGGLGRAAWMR
test: CDK12 nuclear protein level: immunofluorescence/high content analysis in CAL-120 cells
Format: cell-based
runConditions: IC50 CDK12 hATP (Table 2) divided by DC50 CDK12 IF (Table 8)
Parameter threshold = 3000. Response is class 1 when (IC50 CDK12 high ATP) to (Degradation DC50 CDK12) ratio meets or exceeds it, else class 0.

Ask: Quick check: does Fc1cccc2[nH]c(CNc3nc(N4CCOCC4)nn4c(Br)cnc34)nc12 [Example 12] have (IC50 CDK12 high ATP) to (Degradation DC50 CDK12) ratio greater than or equal to 3000?
Reply: class 0

Ask: # check: (IC50 CDK12 high ATP) to (Degradation DC50 CDK12) ratio of Fc1ccc2[nH]c(CNc3nc(N4CCOCC4)nn4c(Br)cnc34)nc2c1F [Example 7] is greater than or equal to 3000
Reply: class 0

Ask: Textbook exercise: given the entry CN1CCN(c2nc(NCc3nc4c(F)c(F)ccc4[nH]3)c3ncc(C(F)(F)F)n3n2)CC1 [Example 28] , state whether its (IC50 CDK12 high ATP) to (Degradation DC50 CDK12) ratio is greater than or equal to 3000.
Reply: class 0

Ask: Assess whether reported (IC50 CDK12 high ATP) to (Degradation DC50 CDK12) ratio for Fc1ccc2[nH]c(CNc3nc(N4CCNCC4)nn4c(Br)cnc34)nc2c1F [Example 10] sits at 3000 or higher.
Reply: class 1

Ask: Hi team, for Fc1ccc2[nH]c(CNc3nc(N4CCOCC4)nn4c(Br)cnc34)nc2c1 [Example 20] , is the recorded (IC50 CDK12 high ATP) to (Degradation DC50 CDK12) ratio at or above 3000?
Reply: class 1

Ask: Answer whether (IC50 CDK12 high ATP) to (Degradation DC50 CDK12) ratio of C[C@@H]1CN(c2nc(NCc3nc4cc(F)ccc4[nH]3)c3ncc(Br)n3n2)C[C@H](C)N1 [Example 19] is greater than or equal to 3000.
Reply: class 1

Ask: Could you verify whether the entry Brc1cnc2c(NCc3nc4ccccc4[nH]3)nc(N3CCOCC3)nn12 [Example 1] shows (IC50 CDK12 high ATP) to (Degradation DC50 CDK12) ratio of no less than 3000?
Reply: class 0

Ask: // inclusive: (IC50 CDK12 high ATP) to (Degradation DC50 CDK12) ratio at least 3000? input: COc1cccc2[nH]c(CNc3nc(N4CCOCC4)nn4c(Br)cnc34)nc12 [Example 13]
Reply: class 0

Ask: hey, is (IC50 CDK12 high ATP) to (Degradation DC50 CDK12) ratio for this one >= 3000? C[C@@H]1CN(c2nc(NCc3nc4c(F)c(F)ccc4[nH]3)c3ncc(Br)n3n2)C[C@H](C)O1 [Example 5]
Reply: class 0

Ask: Is (IC50 CDK12 high ATP) to (Degradation DC50 CDK12) ratio for C[C@@H]1CN(c2nc(NCc3nc4ccccc4[nH]3)c3ncc(Br)n3n2)C[C@H](C)N1 [Example 9] at or above 3000?
Reply: class 1

Ask: Evaluate C[C@@H]1CN(c2nc(NCc3nc4c(F)cccc4[nH]3)c3ncc(Br)n3n2)C[C@H](C)N1 [Example 18] : (IC50 CDK12 high ATP) to (Degradation DC50 CDK12) ratio at minimum 3000?
Reply: class 0

Ask: Item C[C@@H]1CN(c2nc(NCc3nc4c(F)c(F)ccc4[nH]3)c3ncc(Br)n3n2)C[C@H](C)N1 [Example 11] with (IC50 CDK12 high ATP) to (Degradation DC50 CDK12) ratio of 3000 or above?
Reply: class 1

Ask: Has CN1CCN(c2nc(NCc3nc4ccccc4[nH]3)c3ncc(Br)n3n2)CC1 [Example 6] a recorded (IC50 CDK12 high ATP) to (Degradation DC50 CDK12) ratio greater than or equal to 3000?
Reply: class 1

---

experimentalSystem: CDK9/CycT1 (Homo sapiens)
Construct: Recombinant full-length His-tagged human CDK9 and CycT1, expressed in insect cells; His
Sequence (P50750 whole entry): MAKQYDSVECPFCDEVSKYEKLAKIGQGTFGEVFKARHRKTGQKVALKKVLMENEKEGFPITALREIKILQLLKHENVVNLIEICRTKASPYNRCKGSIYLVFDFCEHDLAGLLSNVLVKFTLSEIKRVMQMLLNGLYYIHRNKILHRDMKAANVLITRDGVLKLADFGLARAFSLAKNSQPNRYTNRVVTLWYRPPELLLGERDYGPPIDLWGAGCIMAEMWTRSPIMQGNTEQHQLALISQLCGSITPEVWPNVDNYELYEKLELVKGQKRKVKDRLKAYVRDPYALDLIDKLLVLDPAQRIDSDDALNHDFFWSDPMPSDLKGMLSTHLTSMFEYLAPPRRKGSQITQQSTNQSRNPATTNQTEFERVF
Sequence (O60563 whole entry partner): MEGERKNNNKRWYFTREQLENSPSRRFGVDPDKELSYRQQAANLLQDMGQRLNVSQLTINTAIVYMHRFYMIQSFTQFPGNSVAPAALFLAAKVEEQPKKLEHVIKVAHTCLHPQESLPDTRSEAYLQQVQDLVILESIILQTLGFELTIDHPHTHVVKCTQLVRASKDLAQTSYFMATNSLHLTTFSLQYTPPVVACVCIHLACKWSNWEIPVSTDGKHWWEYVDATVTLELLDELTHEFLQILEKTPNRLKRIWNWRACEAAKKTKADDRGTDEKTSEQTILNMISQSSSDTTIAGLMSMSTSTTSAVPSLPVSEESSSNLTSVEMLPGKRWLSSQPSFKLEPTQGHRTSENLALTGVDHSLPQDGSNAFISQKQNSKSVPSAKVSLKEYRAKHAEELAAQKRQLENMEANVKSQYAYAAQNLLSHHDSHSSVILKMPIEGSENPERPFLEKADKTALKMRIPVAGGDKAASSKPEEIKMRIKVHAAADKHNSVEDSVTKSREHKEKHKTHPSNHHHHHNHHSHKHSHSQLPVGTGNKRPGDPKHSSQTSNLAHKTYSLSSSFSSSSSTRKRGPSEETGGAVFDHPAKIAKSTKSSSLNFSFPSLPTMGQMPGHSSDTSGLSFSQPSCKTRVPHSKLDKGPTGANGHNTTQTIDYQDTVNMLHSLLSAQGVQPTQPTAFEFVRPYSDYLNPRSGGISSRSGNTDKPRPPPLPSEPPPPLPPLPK
test: CDK9/CycT1 high ATP kinase assay (TR-FRET, 2 mM ATP)
runConditions: read-out: CDK9/CyclinT1, 2 mM ATP (high ATP) IC50-[mol/l] (median)
pIC50: −log10 of the molar value.
Could you please report measured pIC50 for the items listed next?

Ask: Fetch value of pIC50 on CDK9/CycT1 (Homo sapiens) for FC(F)(F)c1cnc2c(NCc3nc4ccccc4[nH]3)nc(N3CCOCC3)nn12 .
Reply: < 4.70

Ask: Specify pIC50 for CN1CCN(c2nc(NCc3nc4ccccc4[nH]3)c3ncc(Br)n3n2)CC1 , system CDK9/CycT1 (Homo sapiens).
Reply: < 4.70

Ask: Would you please give the reported pIC50 of N#Cc1cnc2c(NCc3nc4ccccc4[nH]3)nc(N3CCOCC3)nn12 with CDK9/CycT1 (Homo sapiens)?
Reply: < 4.70

Ask: Give pIC50 for C[C@@H]1CN(c2nc(NCc3nc4ccccc4[nH]3)c3ncc(Br)n3n2)C[C@H](C)N1 tested on CDK9/CycT1 (Homo sapiens).
Reply: < 4.70

---

Give log10(IC50) for every item shown.
experimentalSystem: CDK12/CycK (Homo sapiens, UniProt Q9NYV4)
Construct: His-CDK12 (aa Q696-S1082)
Sequence (Q9NYV4 with tags, fused parts or gaps): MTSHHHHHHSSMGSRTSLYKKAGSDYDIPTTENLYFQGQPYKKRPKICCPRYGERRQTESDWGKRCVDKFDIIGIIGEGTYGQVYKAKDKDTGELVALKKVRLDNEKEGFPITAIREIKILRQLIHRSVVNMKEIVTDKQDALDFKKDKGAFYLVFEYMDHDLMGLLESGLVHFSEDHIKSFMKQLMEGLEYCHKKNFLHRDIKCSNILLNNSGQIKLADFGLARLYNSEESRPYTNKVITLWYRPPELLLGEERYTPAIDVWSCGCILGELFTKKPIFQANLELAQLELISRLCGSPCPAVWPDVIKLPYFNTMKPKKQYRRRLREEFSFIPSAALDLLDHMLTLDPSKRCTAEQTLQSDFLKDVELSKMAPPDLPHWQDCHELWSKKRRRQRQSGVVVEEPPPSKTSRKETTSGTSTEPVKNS
Sequence (O75909 with tags, fused parts or gaps partner limits assumed): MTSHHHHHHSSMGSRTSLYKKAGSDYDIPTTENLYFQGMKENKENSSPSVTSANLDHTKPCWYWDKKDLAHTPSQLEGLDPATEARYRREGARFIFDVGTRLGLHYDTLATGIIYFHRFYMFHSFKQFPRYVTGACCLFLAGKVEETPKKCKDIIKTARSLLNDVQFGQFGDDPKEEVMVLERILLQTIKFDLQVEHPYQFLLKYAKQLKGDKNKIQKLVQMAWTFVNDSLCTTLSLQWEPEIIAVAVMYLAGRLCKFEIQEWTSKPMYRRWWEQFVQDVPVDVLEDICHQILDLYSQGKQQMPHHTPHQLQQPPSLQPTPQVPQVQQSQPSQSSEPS
test: CDK12/CycK high ATP kinase assay (TR-FRET, 2 mM ATP)
runConditions: read-out: CDK12/CyclinK, 2 mM ATP (high ATP), IC50-[mol/l] (median)
Heads up: the numbers are on a log10 scale; they represent IC50 in µM.

Ask: Recall and state the measured log10(IC50) for CN1CCN(c2nc(NCc3nc4ccccc4[nH]3)c3ncc(C(F)(F)F)n3n2)CC1 .
Reply: 1.03

Ask: Tell me measured log10(IC50) for CN1CCN(c2nc(NCc3nc4c(F)cccc4[nH]3)c3ncc(Br)n3n2)CC1 please.
Reply: 1.03

Ask: Let me know recorded log10(IC50) for C[C@@H]1CN(c2nc(NCc3nc4ccccc4[nH]3)c3ncc(Br)n3n2)C[C@H](C)O1 , thanks.
Reply: 0.00

Ask: Answer with the recorded log10(IC50) of COc1cccc2[nH]c(CNc3nc(N4CCNCC4)nn4c(Br)cnc34)nc12 only.
Reply: 0.32

Ask: Retrieve log10(IC50) measured for COc1cccc2[nH]c(CNc3nc(N4CCN(C)CC4)nn4c(Br)cnc34)nc12.O=CO and print it.
Reply: 0.80

Ask: Answer with the recorded log10(IC50) for the compound listed here: C[C@@H]1CN(c2nc(NCc3nc4cc(F)ccc4[nH]3)c3ncc(Br)n3n2)C[C@H](C)N1
Reply: 0.81

Ask: For the compound Brc1cnc2c(NCc3nc4ccccc4[nH]3)nc(N3CCNCC3)nn12 , give its reported log10(IC50).
Reply: 0.75

Ask: Identify the reported log10(IC50) for the following entry. N#Cc1cnc2c(NCc3nc4ccccc4[nH]3)nc(N3CCOCC3)nn12
Reply: 0.84

Ask: Return the recorded log10(IC50) value; entry: C[C@@H]1CN(c2nc(NCc3nc4c(F)c(F)ccc4[nH]3)c3ncc(Br)n3n2)C[C@H](C)N1
Reply: -0.24

Ask: Please give the documented log10(IC50) of C[C@@H]1CN(c2nc(NCc3nc4c(F)cccc4[nH]3)c3ncc(Br)n3n2)C[C@H](C)N1
Reply: 0.26

Ask: For the compound Fc1ccc2[nH]c(CNc3nc(N4CCOCC4)nn4c(Br)cnc34)nc2c1 , report log10(IC50).
Reply: 0.54

Ask: Name the recorded log10(IC50) of the item Fc1cccc2[nH]c(CNc3nc(N4CCNCC4)nn4c(Br)cnc34)nc12 in your answer.
Reply: 0.41
